- Tested on: MKL-1 cells (VP-MCC)
- assay.details: qHTS cell viability (CellTiter-Glo, 72 h; primary and follow-up small molecule screen)
- Assay type: cell-based, human
Here the recorded Area under the dose-response curve (AUC) MKL-1 Replicate 3 is given for each entry.

Worked examples follow.
• CN(C)C(=O)Nc1ccc(Cl)c(Cl)c1 = 426.1
• CC[n+]1c(-c2ccccc2)c2cc(N)ccc2c2ccc(N)cc21 [Ethidium bromide] = 288.2
• CN(C)c1ccc(C(=C2C=CC(=[N+](C)C)C=C2)c2ccc(N(C)C)cc2)cc1.[Cl-] [Methylrosaniline chloride] = 301.6
• CCC(=O)NC[C@H](Cc1ccc(OCCc2nc(-c3ccccc3)oc2C)cc1)N/C(C)=C\C(=O)c1ccc(C(F)(F)F)cc1 = 500.6

In: // returns reported Area under the dose-response curve (AUC) MKL-1 Replicate 3 for input CCC(=O)CCCCC[C@@H]1NC(=O)[C@H]2CCCCN2C(=O)[C@H]([C@@H](C)CC)NC(=O)[C@H](Cc2cn(OC)c3ccccc23)NC1=O
Out: 285.0

In: What do you have for CC[C@@]1(O)C(=O)OCc2c1cc1n(c2=O)Cc2cc3cc(O)ccc3nc2-1 [10-hydroxycamptothecin] ?
Out: 223.0

In: And the next one, COc1cccc2c1C(=O)c1c(O)c3c(c(O)c1C2=O)C[C@@](O)(C(C)=O)C[C@@H]3O[C@H]1C[C@H](N)[C@H](O)[C@H](C)O1 ?
Out: 240.0

---

- Test system: NIH-3T3 cells
- assay.details: qHTS cell viability (CellTiter-Glo, 72 h; primary screen), control cell line
- Format: cell-based, mouse
- test.conditions: NPC library, 8-point DRC, control cell line
Structures can show the parent of a compound that is named as a salt.
recorded.metric: NIH3T3_AUC
Format: numeric value only, no unit, no commentary.

- Oc1ccc(C2CNCCc3c2cc(O)c(O)c3Cl)cc1 (stereo not drawn): 489.56
- CSc1ccc2c(c1)N(CCC1CCCCN1C)c1ccccc1S2 (stereo not drawn): 457.937
- O=S1(=O)OC(c2ccc(O)cc2)(c2ccc(O)cc2)c2ccccc21: 484.742
- Nc1ccc(C(=O)NCC(=O)O)cc1: 454.303

In: Given the entry COc1ccc(CCN(C)CCCC(C#N)(c2cc(OC)c(OC)c(OC)c2)C(C)C)cc1OC (stereo not drawn) [Gallopamil hydrochloride] , report its measured NIH3T3_AUC.
Out: 476.798

In: O=C1CC2(CCCC2)CC(=O)N1CCCCN1CCN(c2ncccn2)CC1 , same question.
Out: 490.08

---

- Test system: MKL-1 cells (VP-MCC)
- assay.details: qHTS cell viability (CellTiter-Glo, 72 h; primary and follow-up small molecule screen)
- Type: cell-based, human
- test.conditions: MKL1, 72h, Log (M) -9.15343
recorded.metric: Percent viability

Below, 3 molecules whose answers are already recorded.
• O=C(Nc1cccc(Cl)c1)Nc1ncc(CCNc2ncnc3ccsc23)s1 [SNS-314, reference compound] = 107.4%
• Cc1cc(Nc2cc(N3CCN(C)CC3)nc(Sc3ccc(NC(=O)C4CC4)cc3)n2)[nH]n1 [Tozasertib, reference compound] = 98.2%
• CCS(=O)(=O)c1cccc(-c2cc(C(=O)NC3CCN(C)CC3)c(C)c3[nH]c4ncc(C)cc4c23)c1 [TAK-901, reference compound] = 100.0%

In: Dear colleague, I am looking for the recorded Percent viability of the following molecule: CCn1cc(-c2ccnc3[nH]c(-c4cccc(CN(C)C)c4)cc23)c(-c2ccc(NC(=O)N(C)C)cc2)n1 [GSK-1070916A, reference compound]
Out: 97.5%

The values you see were collected from paper PMC11822212.
